Tested on: U2OS
assay_method_text: Multiplex assay against U2OS
Assay type: toxicity, cell-based
measurement_setup: human, 12 h, 10 µM, compound concentration 10 uM, replicate 2
Recorded measurements of Population Healthy Nuclei (%), one per entry
I only need the number, in %, no unit after it.

Solved cases below.
COCCCN1CCC(NC(=O)c2cc(Cl)c(N)c3c2OCC3)CC1 [PRUCALOPRIDE]: 73
COCCn1c(C)c(C)s/c1=N\C(=O)C1C(C)(C)C1(C)C: 68
Nc1nc(CC(=O)Nc2ccc(CCNC[C@H](O)c3ccccc3)cc2)cs1: 71
CSc1nc(NC2CCCC2)c([N+](=O)[O-])c(NC2CCCC2)n1: 75

Record Cc1nn(C)c2nc(NNC(=O)Nc3cc(Cl)nc(Cl)c3)cc(C(C)C)c12 . Reported Population Healthy Nuclei (%): 63

Record COc1cc(OC2CCN(C(C)=O)CC2)ccc1C(=O)N1CCC(N2C(=O)OCc3ccccc32)CC1 . Reported Population Healthy Nuclei (%): 77

Record CN(C)C(=O)Cn1cc(-c2ccc(-c3nnc4ccccn34)cc2)cn1 . Reported Population Healthy Nuclei (%): 81

Record COc1ccc2[nH]c(I)c(CCNC(C)=O)c2c1 . Reported Population Healthy Nuclei (%): 54

Record Cc1c(Cc2ccc3ccccc3n2)c2cc(F)ccc2n1CC(=O)O . Reported Population Healthy Nuclei (%): 75

Record CCc1nn2c(C)cc(C)nc2c1Cc1ccc(-c2nnc(C3CCNCC3)o2)cc1 . Reported Population Healthy Nuclei (%): 76

====

Test system: U2OS
assay_method_text: Multiplex assay against U2OS
Assay type: toxicity, cell-based
measurement_setup: human, 48 h, 1 µM, compound concentration 1 uM, replicate 2
readout_label: Population Healthy Nuclei (%)

Record Cl.Cl.OCCOCCN1CCN(C(c2ccccc2)c2ccc(Cl)cc2)CC1 (centres undefined) [HYDROXYZINE HYDROCHLORIDE] . Reported Population Healthy Nuclei (%): 76%

Record Cc1c(Cc2ccc3ccccc3n2)c2cc(F)ccc2n1CC(=O)O . Reported Population Healthy Nuclei (%): 71%

Record Cn1cc(C(=O)OCC2CCN(CCNS(C)(=O)=O)CC2)c2ccccc21 . Reported Population Healthy Nuclei (%): 75%

Record COc1ccc2[nH]c(I)c(CCNC(C)=O)c2c1 . Reported Population Healthy Nuclei (%): 81%

Record COc1cc(Nc2ncc3c(n2)-c2ccc(Cl)cc2C(c2c(F)cccc2OC)=NC3)ccc1C(=O)O . Reported Population Healthy Nuclei (%): 53%

Record CC(C)(O)C(=O)N1CCN(c2ccc(C(F)(F)F)c(C3=C(c4c[nH]c5ccccc45)C(=O)NC3=O)c2)CC1 . Reported Population Healthy Nuclei (%): 73%

Record CC(C)(C)c1ccc(CSc2cnn(C(C)(C)C)c(=O)c2Cl)cc1 . Reported Population Healthy Nuclei (%): 70%

Record N[C@](CC1c2ccccc2Oc2ccccc21)(C(=O)O)[C@H]1C[C@@H]1C(=O)O . Reported Population Healthy Nuclei (%): 72%

Record S=C(NCCCc1c[nH]cn1)NCCCN(Cc1ccc(Cl)c(Cl)c1)c1ccc(Br)cn1 . Reported Population Healthy Nuclei (%): 60%

====

Recorded measurements of Population Mitochondria Different-Phenotype (%), one per entry
Test system: Fibroblast
assay_method_text: Multiplex assay against human fibroblast
Format: toxicity, cell-based
measurement_setup: 24 h, 1 µM, compound concentration 1 uM, replicate 1

Solved cases below.
Cc1nn(C)c2nc(NNC(=O)Nc3cc(Cl)nc(Cl)c3)cc(C(C)C)c12: 3%
Cc1cc(-c2ccc3c(c2)CC[C@H]3N2CC3(CCN(C(=O)Cc4cn5cc(C)sc5n4)CC3)C2)ncn1 [PF-5190457]: 4%
CC(C)C[C@H](CO)Nc1nc(S[C@@H](C)c2ccccc2)nc2nc(N)sc12 [AZD-8797]: 1%
COCCn1c(C)c(C)s/c1=N\C(=O)C1C(C)(C)C1(C)C: 5%

Please find the next molecule below.
Record CN1CCN2c3ccccc3Cc3ccccc3C2C1.Cl (stereo not given) [MIANSERIN HYDROCHLORIDE] . Reported Population Mitochondria Different-Phenotype (%): 2%

====

Tested on: HEK-293T
assay_method_text: Multiplex assay against HEK293T
Type: toxicity, cell-based
measurement_setup: human, 48 h, 10 µM, compound concentration 10 uM, replicate 1
Assign true (1) whenever Population Tubulin-Different-Phenotype (%) does not fall below 30%; assign false (0) whenever it does.

Please review the following examples before continuing.
O=C(NCCNCC(O)COc1ccc(O)cc1)N1CCOCC1.O=C(NCCNCC(O)COc1ccc(O)cc1)N1CCOCC1.O=C(O)/C=C/C(=O)O (stereo not drawn) [XAMOTEROL FUMARATE]: false (0)
C[C@@H]1CC(=O)Nc2cccc(-c3ccc4c(c3)c(-c3cnn(C)c3)nn4C)c2N1: false (0)
CCC(=O)OCC(=O)[C@@]1(OC(=O)CC)[C@@H](C)C[C@H]2[C@@H]3CCC4=CC(=O)C=C[C@]4(C)[C@@]3(Cl)[C@@H](O)C[C@@]21C [BECLOMETHASONE DIPROPIONATE]: true (1)
CCn1c(-c2nc3cc(C(=O)N4CCCC(N)C4)ccc3n2C)cc2ccccc21.Cl (stereo not drawn): true (1)
Cc1ccc(OCC(O)C(C)NC(C)C)c2c1CCC2.Cl (stereo not drawn): true (1)

# input Reported Population Tubulin-Different-Phenotype (%) reaches at least 30% for CN1CCN2c3ccccc3Cc3ccccc3C2C1.Cl (stereo not drawn) [MIANSERIN HYDROCHLORIDE] ?
# output false (0)

# input Reported Population Tubulin-Different-Phenotype (%) reaches at least 30% for Cn1cc(C(=O)OCC2CCN(CCNS(C)(=O)=O)CC2)c2ccccc21 ?
# output false (0)

# input Reported Population Tubulin-Different-Phenotype (%) reaches at least 30% for Cc1cc(NC(=O)NCCN2CCC(O)(Cc3ccccc3)CC2)c2ccccc2n1 [PALOSURAN] ?
# output false (0)

====

Recorded measurements of Population Healthy Nuclei (%), one per entry
Test system: U2OS
assay_method_text: Multiplex assay against U2OS
Assay type: toxicity, cell-based
measurement_setup: human, 12 h, 10 µM, compound concentration 10 uM, replicate 1
Could you give the number and then its unit, please?

Solved cases below.
CSc1nc(NC2CCCC2)c([N+](=O)[O-])c(NC2CCCC2)n1 [GS-39783]: 63%
Cc1sc2c(c1C)C(c1ccc(Cl)cc1)=N[C@H](CC(=O)OC(C)(C)C)c1nnc(C)n1-2: 56%

Please find the next compound below.
Record Cc1cc(-c2ccc3c(c2)CC[C@H]3N2CC3(CCN(C(=O)Cc4cn5cc(C)sc5n4)CC3)C2)ncn1 [PF-5190457] . Reported Population Healthy Nuclei (%): 66%

====

Test system: HEK-293T
assay_method_text: Multiplex assay against HEK293T
Format: toxicity, cell-based
measurement_setup: human, 48 h, 10 µM, compound concentration 10 uM, replicate 2
Assign Y whenever Population Apoptotic (%) does not fall below 60%; assign N whenever it does.

Please review the following examples before continuing.
Cc1cc(-c2ccc3c(c2)CC[C@H]3N2CC3(CCN(C(=O)Cc4cn5cc(C)sc5n4)CC3)C2)ncn1: N
C=CCN1C[C@H](C(=O)N(CCCN(C)C)C(=O)NCC)C[C@@H]2c3cccc4[nH]cc(c34)C[C@H]21: N
O=c1ccc2ccc(OCCCCN3CCN(c4cccc5sccc45)CC3)cc2[nH]1: Y
COC(c1ccccc1)(c1ccccc1)[C@H](Oc1nc(C)cc(C)n1)C(=O)O: N
CCc1nn2c(C)cc(C)nc2c1Cc1ccc(-c2nnc(C3CCNCC3)o2)cc1: N

# input Reported Population Apoptotic (%) reaches at least 60% for CCCCCCNC(=O)Nc1ccc(S(=O)(=O)Nc2ccc(CCNC[C@H](O)COc3ccc(O)cc3)cc2)cc1 ?
# output Y

# input Reported Population Apoptotic (%) reaches at least 60% for CN(C)C/C=C/C(=O)Nc1ccc(C(=O)N2CCCC(Nc3ncc(Cl)c(-c4c[nH]c5ccccc45)n3)C2)cc1 (stereo not drawn) ?
# output Y

# input Reported Population Apoptotic (%) reaches at least 60% for COc1cc2nc(N3CCN(C(=O)c4ccco4)CC3)nc(N)c2cc1OC.Cl [PRAZOSIN HYDROCHLORIDE] ?
# output N

====

System: HEK-293T
assay_method_text: Multiplex assay against HEK293T
Format: toxicity, cell-based
measurement_setup: human, 12 h, 10 µM, compound concentration 10 uM, replicate 1
readout_label: Population Hoechst High Intensity Objects (%)
I only need the number, in %, no unit after it.

CC(C)C[C@H](CO)Nc1nc(S[C@@H](C)c2ccccc2)nc2nc(N)sc12: 10
COc1cc2nc(N3CCN(C(=O)COc4c(OC)cccc4C(C)C)CC3)nc(N)c2cc1OC.Cl.Cl: 25
CN1CCN2c3ccccc3Cc3ccccc3C2C1.Cl (centres undefined) [MIANSERIN HYDROCHLORIDE]: 9
CCn1c(-c2nc3cc(C(=O)N4CCCC(N)C4)ccc3n2C)cc2ccccc21.Cl (centres undefined): 11

Record COCCn1c(C)c(C)s/c1=N\C(=O)C1C(C)(C)C1(C)C . Reported Population Hoechst High Intensity Objects (%): 18
